Test system: PDC KRAS tumor spheroids with HUVEC/MSC, viability
Assay: Anticancer human tumor 349418-098-R-PDC patient-derived lung adenocarcinoma cell line growth inhibition [KRAS2]; active = viability on the fitted dose curve at most 10% of control; inactive = the rest
Conditions: second compound 0.1 µM; first compound 0.1 µM
Classes used: TRUE (active), FALSE (inactive)

CCN1CCN(Cc2ccc(Nc3ncc(F)c(-c4cc(F)c5nc(C)n(C(C)C)c5c4)n3)nc2)CC1 + C=CC(=O)N1CCN(c2nc(OCC3CCCN3C)nc3c2CCN(c2cccc4cccc(C)c24)C3)CC1CC#N : FALSE
CC1OCC2(CCN(c3cnc(Sc4ccnc(N)c4Cl)c(N)n3)CC2)C1N (stereo unspecified) + C=CC(=O)N1CCN(c2nc(=O)n(-c3c(C)ccnc3C(C)C)c3nc(-c4c(O)cccc4F)c(F)cc23)C(C)C1 : FALSE
CCN1CCN(Cc2ccc(Nc3ncc(F)c(-c4cc(F)c5nc(C)n(C(C)C)c5c4)n3)nc2)CC1 + CNCc1ccccc1-c1csc(C(C)Nc2nc(C)nc3cc(OC)c(OC)cc23)c1 : FALSE
Cn1nccc1Nc1nccc(-c2cc3c(s2)C(C)(C)N(CCN2CCOCC2)C3=O)n1 + COc1cc2nc(C)nc(NC(C)c3cc(N)cc(C(F)(F)F)c3)c2cc1OC1CCOC1 : FALSE
CN(C)C/C=C/C(=O)Nc1cc2c(Nc3ccc(F)c(Cl)c3)ncnc2cc1O[C@H]1CCOC1 + COc1cc2nc(C)nc(NC(C)c3cc(N)cc(C(F)(F)F)c3)c2cc1OC1CCOC1 : FALSE
CCN1CCN(Cc2ccc(Nc3ncc(F)c(-c4cc(F)c5nc(C)n(C(C)C)c5c4)n3)nc2)CC1 + CC1OCC2(CCN(c3cnc(Sc4ccnc(N)c4Cl)c(N)n3)CC2)C1N : FALSE
CC(C)n1nc(-c2ccc3oc(N)nc3c2)c2c(N)ncnc21 + C=CC(=O)N1CCN(c2nc(OCC3CCCN3C)nc3c2CCN(c2cccc4cccc(C)c24)C3)CC1CC#N : TRUE
CCNC(=O)CC1N=C(c2ccc(Cl)cc2)c2cc(OC)ccc2-n2c(C)nnc21 (stereo unspecified) + C=CC(=O)N1CCN(c2nc(OCC3CCCN3C)nc3c2CCN(c2cccc4cccc(C)c24)C3)CC1CC#N : FALSE
O=C(c1cc(Cc2n[nH]c(=O)c3ccccc23)ccc1F)N1CCN(C(=O)C2CC2)CC1 + C=CC(=O)N1CCN(c2nc(OCC3CCCN3C)nc3c2CCN(c2cccc4cccc(C)c24)C3)CC1CC#N : FALSE
CC(=O)OC12COC1CC(O)C1(C)C(=O)C(O)C3=C(C)C(OC(=O)C(O)C(NC(=O)OC(C)(C)C)c4ccccc4)CC(O)(C(OC(=O)c4ccccc4)C21)C3(C)C (stereo unspecified) + C=CC(=O)N1CCN(c2nc(OCC3CCCN3C)nc3c2CCN(c2cccc4cccc(C)c24)C3)CC1CC#N : FALSE
CC(C)n1nc(-c2ccc3oc(N)nc3c2)c2c(N)ncnc21 + COc1cc2nc(C)nc(NC(C)c3cc(N)cc(C(F)(F)F)c3)c2cc1OC1CCOC1 : TRUE

---

Tested on: PDC KRAS tumor spheroids with HUVEC/MSC, viability
Assay: Anticancer human tumor 349418-098-R-PDC cell line growth inhibition [KRAS2]; active = viability on the fitted dose curve at most 10% of control; inactive = the rest;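 note: spheroids exposed to compounds for seven days before readout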
Settings: second compound 10 µM; first compound 0.00316 µM
Outcome codes: active, inactive

Cn1ncnc1[C@H]1c2n[nH]c(=O)c3cc(F)cc(c23)N[C@@H]1c1ccc(F)cc1 + C=CC(=O)N1CCN(c2nc(=O)n(-c3c(C)ccnc3C(C)C)c3nc(-c4c(O)cccc4F)c(F)cc23)C(C)C1 : inactive
CCN1CCN(Cc2ccc(Nc3ncc(F)c(-c4cc(F)c5nc(C)n(C(C)C)c5c4)n3)nc2)CC1 + CNCc1ccccc1-c1csc(C(C)Nc2nc(C)nc3cc(OC)c(OC)cc23)c1 : active
CC(=O)Nc1cccc(-n2c(=O)n(C3CC3)c(=O)c3c(Nc4ccc(I)cc4F)n(C)c(=O)c(C)c32)c1 + COc1cc2nc(C)nc(NC(C)c3cc(N)cc(C(F)(F)F)c3)c2cc1OC1CCOC1 : active
CN(C)C/C=C/C(=O)Nc1cc2c(Nc3ccc(F)c(Cl)c3)ncnc2cc1O[C@H]1CCOC1 + CNCc1ccccc1-c1csc(C(C)Nc2nc(C)nc3cc(OC)c(OC)cc23)c1 : active
CC(=O)Nc1cccc(-n2c(=O)n(C3CC3)c(=O)c3c(Nc4ccc(I)cc4F)n(C)c(=O)c(C)c32)c1 + CNCc1ccccc1-c1csc(C(C)Nc2nc(C)nc3cc(OC)c(OC)cc23)c1 : active

---

Recorded pIC50 values for a group of compounds are listed next.
System: PDC KRAS tumor spheroids with HUVEC/MSC, viability
Assay: Anticancer human tumor 349418-098-R-PDC cell line growth inhibition [KRAS2];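 note: spheroids exposed to compounds for seven days before readout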
Settings: curve of first compound; second compound 0.316 µM
pIC50: −log10 of the molar value.
endpointLabel: pIC50

CC(=O)Nc1cccc(-n2c(=O)n(C3CC3)c(=O)c3c(Nc4ccc(I)cc4F)n(C)c(=O)c(C)c32)c1 + COc1cc2nc(C)nc(NC(C)c3cc(N)cc(C(F)(F)F)c3)c2cc1OC1CCOC1 : > 10.00
CN(C)C/C=C/C(=O)Nc1cc2c(Nc3ccc(F)c(Cl)c3)ncnc2cc1O[C@H]1CCOC1 + CNCc1ccccc1-c1csc(C(C)Nc2nc(C)nc3cc(OC)c(OC)cc23)c1 : < 7.00
CC1OCC2(CCN(c3cnc(Sc4ccnc(N)c4Cl)c(N)n3)CC2)C1N (stereo not drawn) + C=CC(=O)N1CCN(c2nc(OCC3CCCN3C)nc3c2CCN(c2cccc4cccc(C)c24)C3)CC1CC#N : < 5.00

---

Overview of reported viability, T/C across a group of compounds:
Tested on: PDC KRAS tumor spheroids with HUVEC/MSC, viability
Assay: Anticancer human tumor 349418-098-R-PDC cell line growth inhibition [KRAS2];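 note: spheroids exposed to compounds for seven days before readout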
Conditions: second compound 1 µM; first compound 0.001 µM; stronger effect = lower value
endpointLabel: viability, T/C

Cn1ncnc1[C@H]1c2n[nH]c(=O)c3cc(F)cc(c23)N[C@@H]1c1ccc(F)cc1 + C=CC(=O)N1CCN(c2nc(OCC3CCCN3C)nc3c2CCN(c2cccc4cccc(C)c24)C3)CC1CC#N : 82.8%
CC(C)n1nc(-c2ccc3oc(N)nc3c2)c2c(N)ncnc21 + C=CC(=O)N1CCN(c2nc(OCC3CCCN3C)nc3c2CCN(c2cccc4cccc(C)c24)C3)CC1CC#N : 38.3%
CN(C)C/C=C/C(=O)Nc1cc2c(Nc3ccc(F)c(Cl)c3)ncnc2cc1O[C@H]1CCOC1 + CC1OCC2(CCN(c3cnc(Sc4ccnc(N)c4Cl)c(N)n3)CC2)C1N : 111%
CN(C)C/C=C/C(=O)Nc1cc2c(Nc3ccc(F)c(Cl)c3)ncnc2cc1O[C@H]1CCOC1 + C=CC(=O)N1CCN(c2nc(=O)n(-c3c(C)ccnc3C(C)C)c3nc(-c4c(O)cccc4F)c(F)cc23)C(C)C1 : 85.6%
Cn1ncnc1[C@H]1c2n[nH]c(=O)c3cc(F)cc(c23)N[C@@H]1c1ccc(F)cc1 + CNCc1ccccc1-c1csc(C(C)Nc2nc(C)nc3cc(OC)c(OC)cc23)c1 : 64.6%
CC(C)n1nc(-c2ccc3oc(N)nc3c2)c2c(N)ncnc21 + COc1cc2nc(C)nc(NC(C)c3cc(N)cc(C(F)(F)F)c3)c2cc1OC1CCOC1 : 48.5%
CC(=O)Nc1cccc(-n2c(=O)n(C3CC3)c(=O)c3c(Nc4ccc(I)cc4F)n(C)c(=O)c(C)c32)c1 + CNCc1ccccc1-c1csc(C(C)Nc2nc(C)nc3cc(OC)c(OC)cc23)c1 : 7.27%
CC(C)n1nc(-c2ccc3oc(N)nc3c2)c2c(N)ncnc21 + C=CC(=O)N1CCN(c2nc(=O)n(-c3c(C)ccnc3C(C)C)c3nc(-c4c(O)cccc4F)c(F)cc23)C(C)C1 : 30.5%

---

System: PDC KRAS tumor spheroids with HUVEC/MSC, viability
Experiment: Anticancer human tumor 349418-098-R-PDC cell line growth inhibition [KRAS2];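 note: spheroids exposed to compounds for seven days before readout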
Conditions: second compound 0.1 µM; first compound 0.1 µM; stronger effect = lower value
Please note: viability, T/C exactly at 30% is false (0). Only values below 30% get true (1).

CC(=O)OC12COC1CC(O)C1(C)C(=O)C(O)C3=C(C)C(OC(=O)C(O)C(NC(=O)OC(C)(C)C)c4ccccc4)CC(O)(C(OC(=O)c4ccccc4)C21)C3(C)C (stereo not drawn) + CNCc1ccccc1-c1csc(C(C)Nc2nc(C)nc3cc(OC)c(OC)cc23)c1 : true (1)
O=C(c1cc(Cc2n[nH]c(=O)c3ccccc23)ccc1F)N1CCN(C(=O)C2CC2)CC1 + COc1cc2nc(C)nc(NC(C)c3cc(N)cc(C(F)(F)F)c3)c2cc1OC1CCOC1 : false (0)
Cn1nccc1Nc1nccc(-c2cc3c(s2)C(C)(C)N(CCN2CCOCC2)C3=O)n1 + C=CC(=O)N1CCN(c2nc(OCC3CCCN3C)nc3c2CCN(c2cccc4cccc(C)c24)C3)CC1CC#N : false (0)
CC(C)NCC(C(=O)N1CCN(c2ncnc3c2C(C)CC3O)CC1)c1ccc(Cl)cc1 (stereo not drawn) + CNCc1ccccc1-c1csc(C(C)Nc2nc(C)nc3cc(OC)c(OC)cc23)c1 : false (0)
COC(=O)c1ccc2c(C(=Nc3ccc(N(C)C(=O)CN4CCN(C)CC4)cc3)c3ccccc3)c(O)[nH]c2c1 + C=CC(=O)N1CCN(c2nc(OCC3CCCN3C)nc3c2CCN(c2cccc4cccc(C)c24)C3)CC1CC#N : false (0)
CCNC(=O)CC1N=C(c2ccc(Cl)cc2)c2cc(OC)ccc2-n2c(C)nnc21 (stereo not drawn) + C=CC(=O)N1CCN(c2nc(=O)n(-c3c(C)ccnc3C(C)C)c3nc(-c4c(O)cccc4F)c(F)cc23)C(C)C1 : false (0)
Cn1ncnc1[C@H]1c2n[nH]c(=O)c3cc(F)cc(c23)N[C@@H]1c1ccc(F)cc1 + CNCc1ccccc1-c1csc(C(C)Nc2nc(C)nc3cc(OC)c(OC)cc23)c1 : false (0)
CC(C)NCC(C(=O)N1CCN(c2ncnc3c2C(C)CC3O)CC1)c1ccc(Cl)cc1 (stereo not drawn) + CC1OCC2(CCN(c3cnc(Sc4ccnc(N)c4Cl)c(N)n3)CC2)C1N : false (0)
CC(=O)OC12COC1CC(O)C1(C)C(=O)C(O)C3=C(C)C(OC(=O)C(O)C(NC(=O)OC(C)(C)C)c4ccccc4)CC(O)(C(OC(=O)c4ccccc4)C21)C3(C)C (stereo not drawn) + CC1OCC2(CCN(c3cnc(Sc4ccnc(N)c4Cl)c(N)n3)CC2)C1N : true (1)
COc1cc(Nc2ncc3c(n2)-c2ccc(Cl)cc2C(c2c(F)cccc2OC)=NC3)ccc1C(=O)O + CC1OCC2(CCN(c3cnc(Sc4ccnc(N)c4Cl)c(N)n3)CC2)C1N : false (0)
COc1cc(Nc2ncc3c(n2)-c2ccc(Cl)cc2C(c2c(F)cccc2OC)=NC3)ccc1C(=O)O + C=CC(=O)N1CCN(c2nc(=O)n(-c3c(C)ccnc3C(C)C)c3nc(-c4c(O)cccc4F)c(F)cc23)C(C)C1 : true (1)
Cn1nccc1Nc1nccc(-c2cc3c(s2)C(C)(C)N(CCN2CCOCC2)C3=O)n1 + CNCc1ccccc1-c1csc(C(C)Nc2nc(C)nc3cc(OC)c(OC)cc23)c1 : true (1)
Cn1ncnc1[C@H]1c2n[nH]c(=O)c3cc(F)cc(c23)N[C@@H]1c1ccc(F)cc1 + C=CC(=O)N1CCN(c2nc(OCC3CCCN3C)nc3c2CCN(c2cccc4cccc(C)c24)C3)CC1CC#N : false (0)
